Sourced from BindingDB's records for doi:10.1016/s0960-894x(98)00417-x

# Target Or System: Mannose-6-phosphate isomerase (Candida albicans) (UniProt P34948)
# Sequence (P34948 whole entry, looked up): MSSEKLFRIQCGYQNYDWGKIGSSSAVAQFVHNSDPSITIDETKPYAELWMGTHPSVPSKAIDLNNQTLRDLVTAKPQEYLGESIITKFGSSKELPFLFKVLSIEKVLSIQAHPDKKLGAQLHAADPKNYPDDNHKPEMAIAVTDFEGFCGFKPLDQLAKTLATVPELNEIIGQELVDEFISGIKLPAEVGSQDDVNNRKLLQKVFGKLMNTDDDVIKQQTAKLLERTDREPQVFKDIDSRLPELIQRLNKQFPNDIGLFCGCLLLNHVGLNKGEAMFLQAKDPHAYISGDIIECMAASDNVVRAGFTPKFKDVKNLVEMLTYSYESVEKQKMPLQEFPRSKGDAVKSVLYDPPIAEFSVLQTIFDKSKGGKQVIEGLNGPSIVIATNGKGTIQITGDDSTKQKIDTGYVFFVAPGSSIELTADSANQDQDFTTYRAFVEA
Reported Endpoint: IC50

Notebook: pull reported IC50 for Mannose-6-phosphate isomerase (Candida albicans) (UniProt P34948), entry O=C(CCCSc1ccc(Cl)c(Cl)c1)NC1(C(=O)NO)Cc2ccccc2C1 6 µM
